assay: Toxicity of the cardiogenols (Table 1); format: cell-based, murine; details: mouse, P19CL6 cells
Field: EC50. Provide a value for each of the compounds that follow.
Value expressed in µM; do not type the unit.

[ask] Reported EC50, compound OCCNc1ccnc(Nc2ccc(Nc3ccccc3)cc2)n1 : ____
[reply] 5

[ask] Reported EC50, compound OCCNc1ccnc(Nc2ccc(Oc3ccccc3)cc2)n1 : ____
[reply] 5

[ask] Reported EC50, compound OCCNc1ccnc(Nc2ccc(/C=C/c3ccccc3)cc2)n1 : ____
[reply] 2.5

[ask] Reported EC50, compound COc1ccc(Nc2nccc(NCCO)n2)cc1 : ____
[reply] 25
